All figures here come from ChEMBL document CHEMBL1201862.

target: Beta-galactosidase (Escherichia coli, UniProt Q8VNN2); assay: PubChem AID 485352; format: functional
Sequence (Q8VNN2 whole entry): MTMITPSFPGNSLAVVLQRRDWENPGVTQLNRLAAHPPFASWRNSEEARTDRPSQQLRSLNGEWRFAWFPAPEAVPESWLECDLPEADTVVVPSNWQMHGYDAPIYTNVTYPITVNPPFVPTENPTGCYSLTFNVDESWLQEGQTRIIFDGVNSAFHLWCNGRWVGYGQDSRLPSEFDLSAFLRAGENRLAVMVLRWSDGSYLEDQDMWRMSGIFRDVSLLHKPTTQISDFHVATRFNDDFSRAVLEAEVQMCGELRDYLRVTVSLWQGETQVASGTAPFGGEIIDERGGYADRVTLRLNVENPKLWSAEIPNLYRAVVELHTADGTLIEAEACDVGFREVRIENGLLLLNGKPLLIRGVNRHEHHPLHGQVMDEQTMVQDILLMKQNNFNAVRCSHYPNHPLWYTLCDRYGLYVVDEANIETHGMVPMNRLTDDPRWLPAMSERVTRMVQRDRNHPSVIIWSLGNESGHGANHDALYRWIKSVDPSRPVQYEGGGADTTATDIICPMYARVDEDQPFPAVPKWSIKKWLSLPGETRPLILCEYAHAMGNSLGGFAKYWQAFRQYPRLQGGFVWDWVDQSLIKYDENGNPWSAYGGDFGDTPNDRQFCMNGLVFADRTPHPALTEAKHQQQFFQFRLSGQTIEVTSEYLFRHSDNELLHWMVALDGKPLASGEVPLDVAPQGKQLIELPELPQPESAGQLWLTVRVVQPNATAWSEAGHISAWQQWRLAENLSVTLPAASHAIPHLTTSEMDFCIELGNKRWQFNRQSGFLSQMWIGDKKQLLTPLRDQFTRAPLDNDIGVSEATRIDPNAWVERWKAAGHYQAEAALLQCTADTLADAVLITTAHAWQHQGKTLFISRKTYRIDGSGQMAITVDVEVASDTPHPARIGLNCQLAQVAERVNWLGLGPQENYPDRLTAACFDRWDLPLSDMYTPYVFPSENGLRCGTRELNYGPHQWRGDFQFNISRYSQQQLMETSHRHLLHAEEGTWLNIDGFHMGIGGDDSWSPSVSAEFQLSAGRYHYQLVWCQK
The source made the active and inactive calls.
quantityName: EC50

Known EC50 results, listed for orientation:
**Q:** // EC50 lookup, key: O=C(CN1C(=O)C2C3CCC(C3)C2C1=O)OCC(=O)c1cccc([N+](=O)[O-])c1 (stereo not given)
**A:** > 40 µM (inactive)

**Q:** Repeat with Cc1ccc(N=C2C(=O)Nc3c(C)cccc32)cc1
**A:** > 40 µM (inactive)

**Q:** Repeat with COc1ccc(-c2cc3c(nn2)-c2ccccc2C3=O)cc1
**A:** > 40 µM (inactive)

**Q:** Repeat with CN(CCO)c1cc(Sc2nc3ccccc3s2)c2nonc2c1[N+](=O)[O-]
**A:** > 40 µM (inactive)

// switching to the query compound
**Q:** // EC50 lookup, key: O=C(CCCC(=O)OCC(=O)c1ccc(Cl)cc1Cl)Nc1cc(C(F)(F)F)ccc1Cl
**A:** > 40 µM (inactive)

---

assay: Luminescence Cell-Based Dose Response HTS to Identify Inhibitors of 5'UTR Stem-Loop Driven Prion Protein mRNA Translation in H4 Neuroglioblastoma Cells. [Related pubchem assays: 1827 (Project Summary), 1813 (Primary HTS)]; format: functional
Calls of active or inactive are those of the source.
Provide the reported EC50 of each item.

Below are 2 molecules. Give each one its EC50.
1. CN(C)c1ccc(-c2nc3ccccc3n2C)cc1
2. COc1ccc(C(=O)ON=C(N)c2ccccc2)c(OC)c1

**A:**
12.7 µM (active)
> 120 µM (not active)

Below are 3 molecules. Give each one its EC50.
1. COc1ccc(C(=O)NC(=S)N2CCN(c3ccccc3OC)CC2)cc1OC
2. CCOC(=O)Nc1sc(C(=O)N(C)C)c(C)c1C(=O)OCC
3. N#Cc1ccc(NCCc2ccccn2)c([N+](=O)[O-])c1

**A:**
1: > 120 µM (not active); 2: > 120 µM (not active); 3: > 120 µM (not active)

---

biological target: Carboxy-terminal domain RNA polymerase II polypeptide A small phosphatase 1 (Homo sapiens, UniProt Q9GZU7); assay: inhibitors of CTDSP1, concentration-response testing, biochemical assay, absorbance-based, actives from ultra-high-throughput screening (AID 540297); assay type: functional
Sequence (Q9GZU7 whole entry, the tested form may be a part): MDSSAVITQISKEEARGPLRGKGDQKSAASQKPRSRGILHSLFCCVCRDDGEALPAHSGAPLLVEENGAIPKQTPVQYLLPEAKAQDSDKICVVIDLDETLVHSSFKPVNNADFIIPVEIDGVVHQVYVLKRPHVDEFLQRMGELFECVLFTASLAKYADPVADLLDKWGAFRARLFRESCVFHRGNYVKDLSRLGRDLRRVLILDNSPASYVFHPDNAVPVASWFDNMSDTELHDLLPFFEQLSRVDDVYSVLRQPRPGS
Active and inactive are the calls of the source.
Provide the reported IC50 of each item.

Known IC50 results, listed for orientation:
**Q:** // IC50 lookup, key: CCCCn1c(N)c(-c2nc3ccccc3o2)c2c([N+](=O)[O-])nn(C)c(=O)c21
**A:** 4.75 µM (active)

**Q:** Repeat with CCc1ccc(NC(=O)C[S+]([O-])CC(=O)Nc2ccc(F)cc2F)cc1 (stereo not given)
**A:** 11.2 µM (active)

**Q:** Repeat with C[N+]1(CC(=O)OCCCc2ccccc2)CCCC1
**A:** 6.36 µM (active)

**Q:** Repeat with COCCCNC(=O)/C(C#N)=C/c1ccc(OCC(=O)O)c(OC)c1
**A:** 2.19 µM (active)

// switching to the query molecule
**Q:** // IC50 lookup, key: O=C(O)Cc1sc(N/N=C\c2ccccc2)nc1-c1ccccc1
**A:** 5.14 µM (active)

---

Quick record: AC50, Cytochrome P450 1A2 (Homo sapiens).

Known AC50 results, listed for orientation:
**Q:** // AC50 lookup, key: Cc1cc(C)c2c(O)nc(SCC(=O)N(C)C)nc2n1
**A:** 15.8 µM (inconclusive)

**Q:** Repeat with CC(CO)(CO)Nc1ncnc2ccccc12
**A:** 6.31 µM (inconclusive)

**Q:** Repeat with COc1c2ccoc2nc2c(OC)c(OC[C@H](O)C(C)(C)O)ccc12
**A:** 10 µM (inconclusive)

**Q:** Repeat with Cc1ccc(/C=N/n2cnnc2)s1
**A:** 22.4 µM (inconclusive)

// switching to the query molecule
**Q:** // AC50 lookup, key: Cc1ccc(N(CC(N)=O)C2SC(=O)N(Cc3cccc(C(=O)O)c3)C2=O)cc1 (stereo not given)
**A:** 15.8 µM (inconclusive)

---

Quick record: AC50, Cytochrome P450 2C9 (Homo sapiens, UniProt P11712).

**Q:** // AC50 lookup, key: COc1ccc(N(C(=O)Cn2nnc3ccccc32)C2(C(=O)NC3CCCC3)CCCCC2)cc1
**A:** 22.4 µM (inconclusive)

Below are 7 compounds. Give each one its AC50.
1. COc1cccc([C@@H]2Oc3ccc(OC)cc3/C(=N/O[C@@H](C)CN3CCCc4nc(C)c(C)cc43)[C@@H]2O)c1
2. CCC(C#CCN1CCCCC1)(CC)OCCC#N
3. NC1=C(c2nc(-c3ccc(F)cc3)cs2)C(=O)CN1CCCN1CCOCC1
4. COc1ccc(NC(=O)c2nc[nH]n2)cc1
5. O=C(NCc1ccco1)c1nc(O)c2nnn(Cc3cccc(Cl)c3)c2n1
6. Cc1nc2cnc(Oc3cccc(Cl)c3)nc2n(CCC#N)c1=O
7. COc1cc(C2C(C(=O)c3cccs3)=C(O)C(=O)N2Cc2ccco2)cc(OC)c1OC (configuration not stated)

**A:**
1. 2 µM (inconclusive)
2. 0.355 µM (inconclusive)
3. 28.2 µM (inconclusive)
4. 0.708 µM (inconclusive)
5. 15.8 µM (inconclusive)
6. 39.8 µM (inconclusive)
7. 25.1 µM (inconclusive)

Below are 5 compounds. Give each one its AC50.
1. COC(=O)c1cn(NC(=O)c2ccc(F)cc2)c(=O)c2ccccc12
2. CC1CCC(C(C)C)C(OCC(O)CN2CCN(Cc3ccccc3)CC2)C1 (configuration not stated)
3. Cc1ccc(/C=N/n2cnnc2)s1
4. Cc1nnc2nc(SCC(=O)NCC3CCCO3)n(-c3ccc(Br)cc3)c(N)c1-2 (configuration not stated)
5. Cn1c(O)c(C(c2ccccn2)c2c(O)n(C)c(=S)n(C)c2=O)c(=O)n(C)c1=S

**A:**
39.8 µM (inconclusive)
1.41 µM (inconclusive)
14.1 µM (inconclusive)
14.1 µM (inconclusive)
1.58 µM (inconclusive)

---

molecular target: Protein skinhead-1 (Caenorhabditis elegans); format: functional
Sequence (P34707 whole entry): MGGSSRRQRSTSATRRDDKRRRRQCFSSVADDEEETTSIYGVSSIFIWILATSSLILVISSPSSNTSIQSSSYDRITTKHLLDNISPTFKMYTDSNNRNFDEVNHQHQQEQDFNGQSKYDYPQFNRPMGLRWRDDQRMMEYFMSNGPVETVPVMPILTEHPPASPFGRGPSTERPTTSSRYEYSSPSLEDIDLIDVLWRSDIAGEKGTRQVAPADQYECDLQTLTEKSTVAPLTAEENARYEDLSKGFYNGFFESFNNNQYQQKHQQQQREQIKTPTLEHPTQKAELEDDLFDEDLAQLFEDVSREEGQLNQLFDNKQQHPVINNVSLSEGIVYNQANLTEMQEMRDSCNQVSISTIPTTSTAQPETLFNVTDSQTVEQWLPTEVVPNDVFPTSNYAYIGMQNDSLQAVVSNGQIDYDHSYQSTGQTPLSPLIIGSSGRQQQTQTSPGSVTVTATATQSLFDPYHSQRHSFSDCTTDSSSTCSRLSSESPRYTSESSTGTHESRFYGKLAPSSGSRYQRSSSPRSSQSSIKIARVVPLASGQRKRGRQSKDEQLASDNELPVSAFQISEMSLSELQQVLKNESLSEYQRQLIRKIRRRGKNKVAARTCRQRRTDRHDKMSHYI
Activity calls are given as the source filed them.
API: response.call in 1.0 = active, 0.0 = inactive

**Q:** Test call for this compound, please: N#C/C(=C\c1ccco1)c1nc2ccccc2s1
**A:** 0.0

---

Provide the reported IC50 of each item.
target: Sentrin-specific protease 6 (Homo sapiens); assay type: functional;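 note: Luminescence-based dose-response confirmatory assay of SENP6 inhibition, following up an ultra-high-throughput screen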
Sequence (Q9GZR1 whole entry): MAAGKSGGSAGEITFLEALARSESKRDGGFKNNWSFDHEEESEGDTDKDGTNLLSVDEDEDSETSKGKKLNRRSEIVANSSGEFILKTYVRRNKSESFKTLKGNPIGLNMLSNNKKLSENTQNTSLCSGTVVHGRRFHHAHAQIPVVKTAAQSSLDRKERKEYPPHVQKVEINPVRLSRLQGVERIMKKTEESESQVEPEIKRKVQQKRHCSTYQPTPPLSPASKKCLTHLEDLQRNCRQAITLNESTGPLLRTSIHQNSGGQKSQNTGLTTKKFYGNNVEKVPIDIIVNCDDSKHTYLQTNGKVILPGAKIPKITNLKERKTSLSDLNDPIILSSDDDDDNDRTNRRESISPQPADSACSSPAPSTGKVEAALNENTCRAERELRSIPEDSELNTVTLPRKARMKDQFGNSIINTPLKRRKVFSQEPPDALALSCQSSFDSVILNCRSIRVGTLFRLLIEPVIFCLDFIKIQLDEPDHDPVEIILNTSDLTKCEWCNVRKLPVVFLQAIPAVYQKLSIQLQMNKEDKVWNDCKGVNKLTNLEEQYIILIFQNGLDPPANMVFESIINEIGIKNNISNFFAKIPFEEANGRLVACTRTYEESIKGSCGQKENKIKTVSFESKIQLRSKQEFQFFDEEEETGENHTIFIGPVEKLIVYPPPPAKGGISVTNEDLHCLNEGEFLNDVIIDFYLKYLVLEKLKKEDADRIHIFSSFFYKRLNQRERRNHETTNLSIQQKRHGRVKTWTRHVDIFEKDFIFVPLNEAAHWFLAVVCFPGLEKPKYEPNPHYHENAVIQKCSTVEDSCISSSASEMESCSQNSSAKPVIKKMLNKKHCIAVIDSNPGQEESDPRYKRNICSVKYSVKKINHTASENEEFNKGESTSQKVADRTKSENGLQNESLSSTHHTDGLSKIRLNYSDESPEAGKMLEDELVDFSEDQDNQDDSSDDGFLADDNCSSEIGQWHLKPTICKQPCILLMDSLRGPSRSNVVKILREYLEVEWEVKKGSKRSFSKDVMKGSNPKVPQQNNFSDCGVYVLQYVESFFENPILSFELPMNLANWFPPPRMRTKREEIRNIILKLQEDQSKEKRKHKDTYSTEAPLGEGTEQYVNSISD
The source made the active and inactive calls.

Known IC50 results, listed for orientation:
**Q:** // IC50 lookup, key: CCc1cc[n+](C2=C([N-]S(=O)(=O)c3cccs3)C(=O)c3ccccc3C2=O)cc1
**A:** 3.57 µM (active)

**Q:** Repeat with C/C(=N\NC(=O)c1ccc(Br)cc1)c1ccccc1
**A:** 6.55 µM (active)

**Q:** Repeat with O=C1C=C(Nc2ccc(F)cc2)c2ccccc2C1=O
**A:** 2.94 µM (active)

**Q:** Repeat with COc1ccccc1N(/N=C1\Sc2ccccc2C1=O)C(C)=O
**A:** 4.28 µM (active)

**Q:** Repeat with CC(C)CSC1=NSC2=NC(=O)/C(=C\c3cccs3)C(=N)N12
**A:** 14.9 µM (active)

Below are 2 molecules. Give each one its IC50.
1. O=C(COc1ccc2ccccc2c1)Nc1ccccc1C(=O)O
2. Oc1c(-c2cc(-c3ccco3)[nH]n2)ccc2ccccc12

**A:**
1: 25.5 µM (active); 2: 15 µM (active)

---

Provide the reported IC50 of each item.
biological target: 72 kDa type IV collagenase (Homo sapiens, UniProt P08253); assay: Dose Response validation of uHTS RPN11 inhibitor hits using a MMP-2 Fluorescence assay.; type: functional
Sequence (P08253 whole entry): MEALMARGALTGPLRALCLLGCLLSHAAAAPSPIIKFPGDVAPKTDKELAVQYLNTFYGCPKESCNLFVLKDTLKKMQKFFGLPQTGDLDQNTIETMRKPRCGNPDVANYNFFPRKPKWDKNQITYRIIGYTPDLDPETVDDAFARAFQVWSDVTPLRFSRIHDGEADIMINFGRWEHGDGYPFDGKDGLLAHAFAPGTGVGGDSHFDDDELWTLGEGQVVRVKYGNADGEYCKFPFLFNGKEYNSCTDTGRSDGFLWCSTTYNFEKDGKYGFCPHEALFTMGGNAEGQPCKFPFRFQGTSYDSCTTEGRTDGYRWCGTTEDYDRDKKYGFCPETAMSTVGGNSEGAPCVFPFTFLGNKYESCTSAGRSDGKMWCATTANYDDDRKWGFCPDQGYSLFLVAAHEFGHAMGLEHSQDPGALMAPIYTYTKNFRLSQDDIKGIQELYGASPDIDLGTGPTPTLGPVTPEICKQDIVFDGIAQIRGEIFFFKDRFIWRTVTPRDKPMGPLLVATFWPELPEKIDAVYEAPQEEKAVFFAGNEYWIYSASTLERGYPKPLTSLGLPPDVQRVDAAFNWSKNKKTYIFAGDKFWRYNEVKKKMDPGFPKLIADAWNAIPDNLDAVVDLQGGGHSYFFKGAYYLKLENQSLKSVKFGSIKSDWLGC
Activity calls are given as the source filed them.

**Q:** // IC50 lookup, key: COc1ccc(CNC(=O)c2nnn(CC(=O)Nc3cc(C)cc(C)c3)c2N)cc1
**A:** > 100 µM (inactive)

**Q:** Repeat with COC(=O)c1c(NC(=O)c2ccc(S(=O)(=O)N3CC(C)OC(C)C3)cc2)sc2c1CCN(C)C2 (centres undefined)
**A:** > 100 µM (inactive)

**Q:** Repeat with CSc1ccc(NC(=O)CSc2nc3[nH]c(=O)cc(O)c3s2)cc1
**A:** 40.4 µM (active)

---
**Q:** // IC50 lookup, key: COc1cc(/C=C2/C(=O)N(c3cccc(Br)c3)N=C2C)cc(OC)c1O
**A:** > 100 µM (inactive)

---

Provide the reported EC50 of each item.
target: Nucleotide-binding oligomerization domain-containing protein 2 (Homo sapiens); experiment: NOD2 signaling inhibitors, cell-based, luminescence, uHTS, HEK293 (AID 1566); format: functional
Sequence (Q9HC29 whole entry, the tested form may be a part): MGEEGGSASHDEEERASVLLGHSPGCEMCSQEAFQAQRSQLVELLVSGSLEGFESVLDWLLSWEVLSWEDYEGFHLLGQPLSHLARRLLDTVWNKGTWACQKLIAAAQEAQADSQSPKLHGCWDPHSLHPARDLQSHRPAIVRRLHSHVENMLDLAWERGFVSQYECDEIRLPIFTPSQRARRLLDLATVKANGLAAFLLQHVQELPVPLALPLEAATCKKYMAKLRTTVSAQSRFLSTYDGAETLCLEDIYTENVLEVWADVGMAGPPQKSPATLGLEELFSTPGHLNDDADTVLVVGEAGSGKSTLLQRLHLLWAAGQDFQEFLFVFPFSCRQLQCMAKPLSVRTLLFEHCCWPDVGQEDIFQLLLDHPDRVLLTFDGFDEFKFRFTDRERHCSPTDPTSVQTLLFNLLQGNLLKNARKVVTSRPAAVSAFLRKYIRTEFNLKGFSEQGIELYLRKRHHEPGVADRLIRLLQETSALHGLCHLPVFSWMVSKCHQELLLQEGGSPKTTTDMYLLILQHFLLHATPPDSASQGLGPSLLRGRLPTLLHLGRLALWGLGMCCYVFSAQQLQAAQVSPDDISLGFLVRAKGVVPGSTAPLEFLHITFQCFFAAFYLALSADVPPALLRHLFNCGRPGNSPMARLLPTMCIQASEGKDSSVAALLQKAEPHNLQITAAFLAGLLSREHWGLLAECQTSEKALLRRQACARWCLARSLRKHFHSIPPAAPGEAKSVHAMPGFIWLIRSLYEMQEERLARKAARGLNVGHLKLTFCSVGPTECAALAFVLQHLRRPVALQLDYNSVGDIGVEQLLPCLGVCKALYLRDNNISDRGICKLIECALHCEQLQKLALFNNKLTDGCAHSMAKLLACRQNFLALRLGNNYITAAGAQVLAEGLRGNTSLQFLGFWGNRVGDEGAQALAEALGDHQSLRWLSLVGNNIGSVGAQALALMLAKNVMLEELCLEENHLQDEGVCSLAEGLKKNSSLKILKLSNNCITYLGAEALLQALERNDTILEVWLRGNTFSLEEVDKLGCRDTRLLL
The source made the active and inactive calls.

Below are 5 compounds. Give each one its EC50.
1. COc1ccc(NS(=O)(=O)c2ccc(-c3cnc(C4CC4)o3)cc2)cc1OC
2. O=C(CCCN1C(=O)/C(=C/c2ccccc2Cl)SC1=S)NNC(=O)c1ccccc1
3. O=S(=O)(NCC1CCCO1)c1ccc(-c2ccc(S(=O)(=O)NCC3CCCO3)cc2)cc1 (stereo not given)
4. CN(C)S(=O)(=O)c1cccc(NC(S)=Nc2cccc3cnccc23)c1
5. CCCCCCCn1c(=O)c(C(=O)Nc2cnccn2)c(O)c2ccccc21

**A:**
1. 14.4 µM (active)
2. > 20 µM (inactive)
3. > 20 µM (inactive)
4. 9.33 µM (active)
5. 7.83 µM (active)
